# System: Radical scavenging activity
# test_details: Antioxidant activity assessed as DPPH radical scavenging activity at 5 X 10^-5 M after 60 min
# Format: functional
measured_parameter: inhibition (%)
Write it as a number; the unit % goes unstated.

Recall and state the measured inhibition for CCONC(=O)OC(c1ccccc1)c1cccc(C(C)C(=O)NOCC)c1 (stereo not drawn) . 3.7

Recall and state the measured inhibition for CC(C(=O)n1nnc2ccccc21)c1cccc(C(OC(=O)n2nnc3ccccc32)c2ccccc2)c1 (stereo not drawn) . 3.7

====

# Test system: Sindbis virus
# test_details: Antiviral activity against Sindbis virus infected Hela cells assessed as inhibition of virus-induced cytopathicity
# Format: functional, organism-based
Activity calls are given as the source filed them. The calls are words filed in the database; no cut-off is given here.
measured_parameter: Activity

INSERT INTO results (compound, measured_on, measured_parameter, meas_value) VALUES
  ('CC(C(=O)NC1CCCCC1)c1cccc(C(OC(=O)NC2CCCCC2)c2ccccc2)c1 (stereo not given)', 'Sindbis virus', 'Activity', 'inactive'),
  ('CONC(=O)OC(c1ccccc1)c1cccc(C(C)C(=O)NOC)c1 (stereo not given)', 'Sindbis virus', 'Activity', 'inactive'),
  ('CC(C(=O)NCC1CCCCC1)c1cccc(C(OC(=O)NCC2CCCCC2)c2ccccc2)c1 (stereo not given)', 'Sindbis virus', 'Activity', 'inactive'),
  ('CC(C(=O)N1CCCC1)c1cccc(C(OC(=O)N2CCCC2)c2ccccc2)c1 (stereo not given)', 'Sindbis virus', 'Activity', 'inactive');

Recall and state the measured Activity for CC(C(=O)O)c1cccc(C(=O)c2ccccc2)c1 (stereo not given) . inactive

====

# measured_on: Seed linoleate 13S-lipoxygenase-1 (Glycine max) (UniProt P08170)
# Sequence (P08170 whole entry): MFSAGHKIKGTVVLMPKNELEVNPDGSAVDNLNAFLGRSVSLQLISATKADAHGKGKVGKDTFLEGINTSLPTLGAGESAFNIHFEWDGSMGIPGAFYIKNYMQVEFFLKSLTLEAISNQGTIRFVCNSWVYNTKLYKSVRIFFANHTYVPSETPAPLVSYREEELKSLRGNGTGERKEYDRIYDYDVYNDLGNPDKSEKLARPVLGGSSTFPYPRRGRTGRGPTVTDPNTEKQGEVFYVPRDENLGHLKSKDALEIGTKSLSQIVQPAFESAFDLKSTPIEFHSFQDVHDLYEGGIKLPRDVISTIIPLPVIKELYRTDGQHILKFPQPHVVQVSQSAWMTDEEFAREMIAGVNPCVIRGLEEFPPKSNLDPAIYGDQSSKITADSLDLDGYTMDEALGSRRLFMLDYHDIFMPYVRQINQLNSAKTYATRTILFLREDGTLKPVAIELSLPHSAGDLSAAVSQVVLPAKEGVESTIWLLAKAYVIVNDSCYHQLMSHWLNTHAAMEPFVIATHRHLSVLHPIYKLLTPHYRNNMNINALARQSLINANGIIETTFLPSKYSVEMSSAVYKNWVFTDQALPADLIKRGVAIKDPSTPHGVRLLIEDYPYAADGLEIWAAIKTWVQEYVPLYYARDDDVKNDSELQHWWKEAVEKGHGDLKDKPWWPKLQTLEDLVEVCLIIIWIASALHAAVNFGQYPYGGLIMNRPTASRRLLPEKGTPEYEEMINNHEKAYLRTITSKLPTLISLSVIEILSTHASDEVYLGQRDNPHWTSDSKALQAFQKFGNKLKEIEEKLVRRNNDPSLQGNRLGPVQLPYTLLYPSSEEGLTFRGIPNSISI
# test_details: Inhibition of Glycine max (soybean) lipoxygenase using sodium linoleate as substrate at 1 X 10^-4
measured_parameter: inhibition

These recorded examples may help you get a feel for the data.
INSERT INTO measurements (compound, measured_on, meas_value) VALUES
  ('CC(C(=O)N1CCCC1)c1cccc(C(OC(=O)N2CCCC2)c2ccccc2)c1 (stereo unspecified)', 'Seed linoleate 13S-lipoxygenase-1 (Glycine max) (UniProt P08170)', '12.7%'),
  ('CC(C(=O)NC1CCCC1)c1cccc(C(OC(=O)NC2CCCC2)c2ccccc2)c1 (stereo unspecified)', 'Seed linoleate 13S-lipoxygenase-1 (Glycine max) (UniProt P08170)', '69.6%'),
  ('CONC(=O)OC(c1ccccc1)c1cccc(C(C)C(=O)NOC)c1 (stereo unspecified)', 'Seed linoleate 13S-lipoxygenase-1 (Glycine max) (UniProt P08170)', '26.9%'),
  ('CC(C(=O)NCCc1ccccc1)c1cccc(C(OC(=O)NCCc2ccccc2)c2ccccc2)c1 (stereo unspecified)', 'Seed linoleate 13S-lipoxygenase-1 (Glycine max) (UniProt P08170)', '18.9%'),
  ('CC(C(=O)n1nnc2ccccc21)c1cccc(C(OC(=O)n2nnc3ccccc32)c2ccccc2)c1 (stereo unspecified)', 'Seed linoleate 13S-lipoxygenase-1 (Glycine max) (UniProt P08170)', '95%');

Recall and state the measured inhibition for CC(C(=O)NC1CCCCC1)c1cccc(C(OC(=O)NC2CCCCC2)c2ccccc2)c1 (stereo unspecified) . 22.7%

Recall and state the measured inhibition for CCONC(=O)OC(c1ccccc1)c1cccc(C(C)C(=O)NOCC)c1 (stereo unspecified) . 22.3%

Recall and state the measured inhibition for CC(C(=O)NCc1ccccc1)c1cccc(C(OC(=O)NCc2ccccc2)c2ccccc2)c1 (stereo unspecified) . 83.8%

Recall and state the measured inhibition for CC(C(=O)NCC1CCCCC1)c1cccc(C(OC(=O)NCC2CCCCC2)c2ccccc2)c1 (stereo unspecified) . 56.6%

Recall and state the measured inhibition for CC(C(=O)NOCc1ccccc1)c1cccc(C(OC(=O)NOCc2ccccc2)c2ccccc2)c1 (stereo unspecified) . 40.8%

====

Measured pIC50 (Seed linoleate 13S-lipoxygenase-1 (Glycine max, UniProt P08170))
// scale note: pIC50 = -log10(conc_M); give the bare number

These recorded examples may help you get a feel for the data.
INSERT INTO measurements (compound, measured_on, meas_value) VALUES
  ('CC(C(=O)n1nnc2ccccc21)c1cccc(C(OC(=O)n2nnc3ccccc32)c2ccccc2)c1 (stereo not given)', 'Seed linoleate 13S-lipoxygenase-1 (Glycine max, UniProt P08170)', 4.68),
  ('CC(C(=O)NCc1ccccc1)c1cccc(C(OC(=O)NCc2ccccc2)c2ccccc2)c1 (stereo not given)', 'Seed linoleate 13S-lipoxygenase-1 (Glycine max, UniProt P08170)', 4.49),
  ('CC(C(=O)NCC1CCCCC1)c1cccc(C(OC(=O)NCC2CCCCC2)c2ccccc2)c1 (stereo not given)', 'Seed linoleate 13S-lipoxygenase-1 (Glycine max, UniProt P08170)', 4.02);

# return pIC50 for CC(C(=O)NC1CCCC1)c1cccc(C(OC(=O)NC2CCCC2)c2ccccc2)c1 (stereo not given) , test system: Seed linoleate 13S-lipoxygenase-1 (Glycine max, UniProt P08170) 4.07

# return pIC50 for CC(C(=O)O)c1cccc(C(=O)c2ccccc2)c1 (stereo not given) [KETOPROFEN] , test system: Seed linoleate 13S-lipoxygenase-1 (Glycine max, UniProt P08170) 3.89

====

The following compounds are listed with their measured inhibition values.
# Tested on: Radical scavenging activity
# test_details: Antioxidant activity assessed as DPPH radical scavenging activity at 5 X 10^-5 M after 60 min
# Format: functional
Write it as a number; the unit % goes unstated.

These recorded examples may help you get a feel for the data.
INSERT INTO results (compound, measured_on, meas_value) VALUES
  ('CC(Cc1ccc(O)c(O)c1)C(C)Cc1ccc(O)c(O)c1 (stereo unspecified)', 'Radical scavenging activity', 83),
  ('CC(C(=O)NOCc1ccccc1)c1cccc(C(OC(=O)NOCc2ccccc2)c2ccccc2)c1 (stereo unspecified)', 'Radical scavenging activity', 5.6),
  ('CC(C(=O)NCCc1ccccc1)c1cccc(C(OC(=O)NCCc2ccccc2)c2ccccc2)c1 (stereo unspecified)', 'Radical scavenging activity', 8.5),
  ('CC(C(=O)N1CCCCC1)c1cccc(C(OC(=O)N2CCCCC2)c2ccccc2)c1 (stereo unspecified)', 'Radical scavenging activity', 10),
  ('CC(C(=O)NCC1CCCCC1)c1cccc(C(OC(=O)NCC2CCCCC2)c2ccccc2)c1 (stereo unspecified)', 'Radical scavenging activity', 3.1),
  ('CC(C(=O)O)c1cccc(C(=O)c2ccccc2)c1 (stereo unspecified)', 'Radical scavenging activity', 3.1);

Recall and state the measured inhibition for CONC(=O)OC(c1ccccc1)c1cccc(C(C)C(=O)NOC)c1 (stereo unspecified) . 4.1

Recall and state the measured inhibition for CC(C(=O)NC1CCCC1)c1cccc(C(OC(=O)NC2CCCC2)c2ccccc2)c1 (stereo unspecified) . 2.8

====

# Tested on: Radical scavenging activity
# test_details: Antioxidant activity assessed as DPPH radical scavenging activity at 5 X 10^-5 M after 60 min
# Assay type: functional
The following molecules are listed with their measured inhibition values.
Write it as a number; the unit % goes unstated.

These recorded examples may help you get a feel for the data.
INSERT INTO measurements (molecule, measured_parameter, meas_value) VALUES
  ('CC(C(=O)NCc1ccccc1)c1cccc(C(OC(=O)NCc2ccccc2)c2ccccc2)c1 (stereo not drawn)', 'inhibition', 5.3),
  ('CC(C(=O)NC1CCCCC1)c1cccc(C(OC(=O)NC2CCCCC2)c2ccccc2)c1 (stereo not drawn)', 'inhibition', 3.1);

Recall and state the measured inhibition for CC(C(=O)N1CCCC1)c1cccc(C(OC(=O)N2CCCC2)c2ccccc2)c1 (stereo not drawn) . 6.5
